Catalogue of compounds with associated inhibition
- System: Hepatitis C virus NS3 helicase
- PROCEDURE_DETAILS: HCV NS3 helicase inhibitors, primary screen, biochemical, fluorescence polarization, NIH Clinical Collection (AID 743270)
- SETUP_CONDITIONS: NS3 helicase binding to Cy5-dT15 DNA, stronger effect = higher value, concentration not given here
Write it as a number; the unit % goes unstated.

Please report the measured inhibition for Nc1nc(Cl)nc2c1ncn2[C@@H]1O[C@H](CO)[C@@H](O)[C@H]1O tested on Hepatitis C virus NS3 helicase.
5.15

Please report the measured inhibition for CN(C)[C@@H]1C(=O)C(C(=O)NCN2CCCC2)=C(O)[C@@]2(O)C(=O)C3=C(O)c4c(O)cccc4[C@@](C)(O)C3CC12 (some centres not stated) tested on Hepatitis C virus NS3 helicase.
-3.71

Please report the measured inhibition for C/C(=C\C(=O)OCCCCCCCCC(=O)O)C[C@@H]1OC[C@H](C[C@@H]2O[C@H]2[C@@H](C)[C@H](C)O)[C@@H](O)[C@H]1O tested on Hepatitis C virus NS3 helicase.
-4.09

Please report the measured inhibition for O=C1N[C@H](C(=O)O)CS1 tested on Hepatitis C virus NS3 helicase.
-3.56

Please report the measured inhibition for CN1CCN2c3ncccc3Cc3ccccc3C2C1 (configuration not stated) tested on Hepatitis C virus NS3 helicase.
-1.97

Please report the measured inhibition for C=CCc1ccc(O)c(-c2ccc(O)c(CC=C)c2)c1 tested on Hepatitis C virus NS3 helicase.
5.94

Please report the measured inhibition for CN(C)C1C(=O)C(C(N)=O)=C(O)C2(O)C(=O)C3=C(O)c4c(O)ccc(Cl)c4C(O)C3CC12 (configuration not stated) tested on Hepatitis C virus NS3 helicase.
-11.4

Please report the measured inhibition for CC1c2cccc(O)c2C(O)=C2C(=O)[C@]3(O)C(O)=C(C(N)=O)C(=O)[C@@H](N(C)C)[C@@H]3C[C@@H]21 (some centres not stated) tested on Hepatitis C virus NS3 helicase.
-1.36

The reported numbers originate from PubChem BioAssay.
